Source: PubChem BioAssay (NCI)

test system: OVCAR-4 ovarian; assay: NCI-60 one-dose screen, 48 h (100 = growth as untreated, 0 = no growth, -100 = all killed); conditions: 10 µM unless noted
Compounds without any hit were thinned out: in the full panel of roughly 83,000, 20% have a hit.
# label = Met if growth >= 80% else Not met

Worked cases, answers included:
* COc1cc2nccc(Oc3ccc(NC(=O)C4(C(=O)Nc5c(F)cc(F)cc5F)CC4)cc3)c2cc1Oc1ccc(N)cn1 | Not met
* CC(CN1CCN(CCOCCO)CC1)CN1c2ccccc2Sc2ccc(Cl)cc21 (stereo unspecified) | Not met
* COc1ccc([C@@H]2[C@@H](Cl)C(=O)N2c2cc(OC)c(OC)c(OC)c2)cc1C | Not met
* COc1ccc(-c2nc3ccc(Cc4ccc5nc(-c6ccc(OC)cc6)[nH]c5c4)cc3[nH]2)cc1 | Not met
* COc1ccc(C2C3CCc4ccccc4C3=NN2C(=O)c2cc(OC)c(OC)c(OC)c2)cc1O (stereo unspecified) | Met

Qu. Given the entry COc1cc(-c2n/c(=C\c3c(O)[nH]c4cc(Cl)ccc34)cc3c2=Nc2ccccc2-3)cc(OC)c1OC , answer whether its growth meets or surpasses 80%.
Ans. Not met

###

System: HCT-15 colon
Test: NCI-60 one-dose screen, 48 h
Details: 10 µM unless noted
Method: Growth inhibition of the HCT-15 human tumor cell line is measured as a screen for anti-cancer activity. Cells are grown in 96 well plates and exposed to the test compound for 48 hours. Compounds are tested at a single concentration, which is 10^-5 M for most compounds. The reported endpoint is percent growth (GI% or GIPRCNT), where numbers from 0 - 100% represent growth inhibition, and numbers from -100% - 0 represent cell death. For example, a value of 40 represents 60% growth inhibition. […]
The panel holds about 83,000 compounds, 20% with a hit somewhere; the sample as a whole holds those more often. Active and inactive are the calls of the source. How the source made its calls: active means growth percent below 10; inactive means the rest.
In this exercise, the only acceptable responses are active, inactive

Qu. Give the logged outcome of this assay for the following compound: CC(C)[C@H](CN)NC[C@H](C)NS(=O)(=O)c1ccc(C(C)(C)C)cc1
Ans. inactive

###

tested on: KM12 colon; assay: NCI-60 one-dose screen, 48 h (100 = growth as untreated, 0 = no growth, -100 = all killed); conditions: 10 µM unless noted
The panel holds about 83,000 compounds, 20% with a hit somewhere; the sample as a whole holds those more often.
Response key: Met means growth >= 70%; Not met means growth < 70%.

Solved entries:
- CC(C)N1CCN(c2ccncc2S(=O)(=O)N2CCN(C)CC2)CC1: Met
- O=C(Cc1ccc(Nc2ccnc(C(F)(F)F)c2)cc1)N/N=C/c1ccccc1O: Not met
- Fc1ccc2nc(-c3ccc(-c4noc(-c5ccc(Cl)cc5)n4)cc3)[nH]c2c1: Met
- C=CCn1c(SCC(=O)Nc2ccc(/C(C)=N\O)cc2)nnc1-c1cc(-c2ccc(Cl)cc2)nc2ccccc12: Not met
- COc1c(B(O)O)cccc1-c1nc2c(F)cc3n[nH]c(C)c3c2c2c1CCCC2: Not met

Qu. State whether the measured growth reaches 70%, counting equality as reaching it, for C[C@@H]1C[C@H](N)C[C@H](c2ccncc2NC(=O)c2ccc(F)c(-c3c(F)cccc3F)n2)C1
Ans. Not met

Qu. Let us now turn to Cc1cc(C)cc(NC(=O)Cn2nncc2CN2C(=O)CSC2=O)c1
Ans. Met

Qu. Also COc1ccc(-c2[nH]nc(N)c2-c2cc(OC)c(OC)c(OC)c2)cc1 ?
Ans. Not met

Qu. Note, next up: COCCn1c(Nc2ccc(C(=O)NO)cc2)nc2ccccc21
Ans. Not met

###

system: TK-10 renal; test: NCI-60 one-dose screen, 48 h; conditions: 10 µM unless noted
The panel holds about 83,000 compounds, 20% with a hit somewhere; the sample as a whole holds those more often. Calls of active or inactive are those of the source. The calls were made as follows: active = growth percent below 10; inactive = the rest.
// allowed return values: active, inactive

* CC(=O)O[C@H]1[C@H](CC#CC#CC[C@@H]2C[C@]3(C)[C@H]4CC=C5[C@H]6[C@@H](C)[C@H](C)CC[C@]6(C(=O)NCCN(CCN)CCN)CC[C@@]5(C)[C@]4(C)CC[C@H]3C(C)(C)[C@H]2OC(C)=O)C[C@]2(C)[C@H]3CC=C4[C@H]5[C@@H](C)[C@H](C)CC[C@]5(C(=O)NCCN(CCN)CCN)CC[C@@]4(C)[C@]3(C)CC[C@H]2C1(C)C | inactive

Qu. Test call for this compound, please: COc1cc(CN2CCO[C@H](COc3cccc(F)c3)C2)ccc1Cl
Ans. inactive

Qu. Moving on to Cc1n(Cc2ccc3ccccc3n2)cc[n+]1Cc1ccc2ccccc2c1
Ans. inactive

Qu. Next entry: C=C(C)[C@@H]1CC[C@]2(C)[C@H](CC=C3[C@@H]4C[C@](C)(C(=O)N5CCN(C)CC5)CC[C@]4(C)CC[C@]32C)[C@@]1(C)CCC#N
Ans. inactive

Qu. Same again, this time with N=C(N)c1ccc(-c2ccc(-c3cc(Cl)cc(Cl)c3)o2)nc1
Ans. active

Qu. Cool, now Cn1nc(C(F)(F)F)cc1-c1cc(Cl)c(OCc2ccc(Cl)cc2)c(-c2ccc(Cl)c(C(F)(F)F)c2)c1O
Ans. active

###

test system: IGROV1 ovarian; assay: NCI-60 one-dose screen, 48 h (100 = growth as untreated, 0 = no growth, -100 = all killed); details: 10 µM unless noted
About 83,000 compounds went through this panel and 20% of them were active in at least one assay; those are over-represented in the sample as a whole.
// reported growth per item
Express it in %; write the number only.

Qu. Item COc1ccc(NC(=O)C2c3ccccc3C(=O)N(CC(C)C)C2c2cccs2)cc1 (stereo not given) has what recorded growth?
Ans. 117

Qu. What do you have for CCCCCCCCCCCCCCCCOc1ccc(S(=O)(=O)N(C)C)cc1[N+](=O)[O-] ?
Ans. 98.5

Qu. Try this molecule too: COc1cccc2nc(Nc3cccc(NC(=O)c4ccc(N5CCN(C)CC5)c(C(F)(F)F)c4)c3)ccc12
Ans. 28.6

Qu. Please give the result for CN1CCN(Cc2ccc(NC(=O)c3cncc(C#Cc4ccc(N)nc4)c3)cc2C(F)(F)F)CC1 too.
Ans. -18.2

Qu. Subsequent entry: c1ccc(C(CC2=NCCCN2)c2ccccc2)cc1
Ans. 108

Qu. Moving on to the next molecule: CCN(CC)CCCC(C)N/C(c1cccc(OC)c1)=c1\c(=O)[nH]n(-c2c3ccccc3nc3ccccc23)c(=O)\c1=C(/NC(C)CCCN(CC)CC)c1cccc(OC)c1 (stereo not given)
Ans. -6.96

Qu. Now try COc1ccc2[nH]cc(/C=C3\C(=O)Nc4ccccc43)c2c1 .
Ans. -21.9

Qu. Next molecule up: CCCCNCCC(O)c1cc2ccc(C(F)(F)F)cc2c2cc(C(F)(F)F)ccc12 (stereo not given)
Ans. -60.9

Qu. Do the same for Brc1ccccc1Cn1c(-c2cncs2)nc2ccccc21 please
Ans. 86.9

Qu. Another molecule to check: FC(F)(F)c1ccc(/C=N/Nc2nnc3n2N=C(c2ccc(Cl)cc2)CS3)cc1
Ans. 49.2

###

system: SK-OV-3 ovarian; experiment: NCI-60 one-dose screen, 48 h (100 = growth as untreated, 0 = no growth, -100 = all killed); conditions: 10 µM unless noted
The panel holds about 83,000 compounds, 20% with a hit somewhere; the sample as a whole holds those more often.
satisfied if growth is below 90%. not satisfied if not; exact matches included in not satisfied.

Qu. Hi there! Is growth for COc1cc2nccc(Oc3ccc(NC(=O)C4(C(=O)Nc5ccc(F)cc5)CC4)cc3)c2cc1O below 90%, do you know?
Ans. satisfied

Qu. Okay, and COc1ccc(NC(=O)C2c3ccccc3C(=O)N(CC(C)C)C2c2cccs2)cc1 (stereo not given) ?
Ans. not satisfied

Qu. Now try Nc1ccc(N(O)/C=C2\C=CC=CC2=O)cc1N .
Ans. not satisfied

Qu. Try this compound too: Cc1ccc2oc(=O)cc(-c3nc4ccc([N+](=O)[O-])cc4[nH]3)c2c1
Ans. satisfied

###

tested on: SF-268 CNS; assay: NCI-60 one-dose screen, 48 h (100 = growth as untreated, 0 = no growth, -100 = all killed); details: 10 µM unless noted
The panel holds about 83,000 compounds, 20% with a hit somewhere; the sample as a whole holds those more often.
growth strictly less than 50% = 1 (yes). Otherwise 0 (no).

For orientation, consider the following solved cases.
• COC(=O)C1(C)COP(=O)(NC23CC4CC(CC(C4)C2)C3)OC1 (stereo unspecified) = 0 (no)
• COc1ccc(/C=C2\N=C(c3cccnc3)N(c3ccccc3)NC2=O)cc1 = 0 (no)
• Cc1ccccc1N1C(c2ccccc2)=NNC12C=CC(=O)c1c(O)cccc12 (stereo unspecified) = 0 (no)

Qu. Please determine if O=C(O)/C=C(\c1nc2ccc([N+](=O)[O-])cc2[nH]1)c1cc(Cl)ccc1O is below 50% in terms of growth.
Ans. 1 (yes)

Qu. // same read-out, input: COc1ccccc1NC(=O)OCC12COCN1COC2
Ans. 0 (no)

Qu. Do the same for N#Cc1c(NN)n(C2OC(CO)C(O)C2O)c2ncnc(N)c12 (stereo unspecified) please
Ans. 1 (yes)

Qu. Likewise for COc1ccc(Br)c2ccccc12 ?
Ans. 0 (no)

Qu. # iterate: COc1ccc(-c2nnc(SCC(=O)Nc3ccc(C(=O)/C=C/c4ccc(Cl)cc4)cc3)n2-c2ccccc2)cc1
Ans. 0 (no)

Qu. Cc1cc(C)cc(CCCCCCCCCCCCCCCCCC(=O)O)c1 ?
Ans. 0 (no)

Qu. Try this compound too: O=C1Cc2c([nH]c3ccc([N+](=O)[O-])cc23)-c2ccccc2N1
Ans. 1 (yes)

Qu. Next: Cc1nn(-c2ccc(Cl)cc2)c(=O)n1CCN1CCOCC1
Ans. 1 (yes)
